// data source = ChEMBL document CHEMBL2218924

target: Mitogen-activated protein kinase 1 (Homo sapiens) (UniProt P28482); conditions: at 1 µM
Sequence (P28482 whole entry): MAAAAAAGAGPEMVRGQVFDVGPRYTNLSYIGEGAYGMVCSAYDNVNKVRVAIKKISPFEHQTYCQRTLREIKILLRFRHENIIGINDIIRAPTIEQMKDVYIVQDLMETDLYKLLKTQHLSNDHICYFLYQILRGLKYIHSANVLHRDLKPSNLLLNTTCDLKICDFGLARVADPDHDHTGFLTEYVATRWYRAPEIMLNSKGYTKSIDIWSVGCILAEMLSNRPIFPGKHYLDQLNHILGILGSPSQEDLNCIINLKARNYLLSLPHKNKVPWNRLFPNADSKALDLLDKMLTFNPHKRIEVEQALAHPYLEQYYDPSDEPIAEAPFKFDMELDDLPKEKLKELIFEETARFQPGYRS
Description: Millipore: Percentage of residual kinase activity of MAPK1 at 1uM relative to control. Control inhibitor: ERK Inhibitor II at 30.0uM. Buffer: 25 mM Tris pH 7.5, 0.02 mM EGTA
attribute measured: residual activity (%)
Reply numerically in %, unit not repeated.

Use these answered entries as a reference point.
residual activity measured on "O=[N+]([O-])/C=C/c1ccc2c(c1)OCO2" = 106

residual activity measured on C[S+]([O-])c1ccc(-c2nc(-c3ccc(F)cc3)c(-c3ccncc3)[nH]2)cc1 (stereo not given) = 118

residual activity measured on "CC(C)(C)c1cc(C=C(C#N)C#N)cc(Br)c1O" = 105

residual activity measured on "CCn1cnc2c(Nc3cccc(Cl)c3)nc(N[C@@H]3CCCC[C@@H]3N)nc21" = 62

residual activity measured on "O=C1Nc2ccc3ncsc3c2/C1=C/c1c[nH]cn1" = 4

residual activity measured on "COC(=O)[C@@]1(O)C[C@H]2O[C@]1(C)n1c3ccccc3c3c4c(c5c6ccccc6n2c5c31)C(=O)NC4" = 5

residual activity measured on "O=c1[nH]c2ccccc2n1C1CCN(Cc2ccc(-c3nc4cc5[nH]cnc5cc4nc3-c3ccccc3)cc2)CC1" = 108

residual activity measured on "COc1cc2ncnc(Nc3ccc(OCc4ccccc4)cc3)c2cc1OC" = 103

Next:
residual activity measured on "COc1ccc2c(c1)/C(=C/c1cnc[nH]1)C(=O)N2" = 97

residual activity measured on "CC(C)[C@H](CO)Nc1nc(Nc2cccc(Cl)c2)c2ncn(C(C)C)c2n1" = 102
